Tested on: HEL
Assay: Cytostatic activity against HEL cells after 3 days by Coulter counting method
Format: cell-based
Settings: human, 72 h
Quantity Measured: CC50

{"Molecule": "Nc1ccn(C[C@@H](CO)OCP(=O)(O)O)c(=O)n1", "CC50": "> 300 µM"}
{"Molecule": "COC(=O)[C@H](C)NP(=O)(C/C=C/Cn1cc(C)c(=O)[nH]c1=O)Oc1ccccc1 (stereo not given in full)", "CC50": "> 100 µM"}
{"Molecule": "Nc1nc2c(ncn2COCCO)c(=O)[nH]1", "CC50": "> 440 µM"}
{"Molecule": "O=c1[nH]c(=O)n([C@H]2C[C@H](O)[C@@H](CO)O2)cc1/C=C/Br", "CC50": "> 300 µM"}

Now for a further molecule.
Asked: Need CC50, item `Cc1cn(C/C=C/C[P@](=O)(N[C@@H](C)C(=O)OCc2ccccc2)Oc2ccccc2)c(=O)[nH]c1=O`
Given back: ≥ 83 µM
